Biological target: T1, CEGPCR4 (C. elegans)
T1 construct: Expressed in CHO cells; also called CEGPCR4 receptor; CEGPCR4/CHO membranes
T1 chain: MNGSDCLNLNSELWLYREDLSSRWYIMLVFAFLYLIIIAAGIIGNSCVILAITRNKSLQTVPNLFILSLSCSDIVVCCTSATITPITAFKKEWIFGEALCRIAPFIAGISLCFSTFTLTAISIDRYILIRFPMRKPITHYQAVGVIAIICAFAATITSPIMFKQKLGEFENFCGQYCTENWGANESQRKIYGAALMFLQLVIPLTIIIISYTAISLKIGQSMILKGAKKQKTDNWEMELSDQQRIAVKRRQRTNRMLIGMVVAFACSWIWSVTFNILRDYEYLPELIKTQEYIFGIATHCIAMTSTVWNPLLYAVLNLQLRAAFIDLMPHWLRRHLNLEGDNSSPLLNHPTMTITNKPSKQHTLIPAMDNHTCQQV
Experiment: competition binding assay, CEGPCR4/CHO membranes; IC50 range printed once for block r9-r18
Where no end group is shown, it is not given here.
quantity-name: binding result

DFDGAMPGVLRF-NH2 (flp18) [DFDGAMPGVLRF-NH2] : binds
SEVPGVLRF-NH2 (flp18) [SEVPGVLRF-NH2] : binds
SVPGVLRF-NH2 (flp18) [SVPGVLRF-NH2] : binds
KSVPGVLRF-NH2 (flp18) [KSVPGVLRF-NH2] : binds
EIPGVLRF-NH2 (flp18) [EIPGVLRF-NH2] : binds
ASPSFIRF-NH2 (flp4) [ASPSFIRF-NH2] : binds
